Reference source: paper PMC8248824

targetDesc: T1, HER3 extracellular domain 4, biotinylated (N-terminal AviTag and His6 tag) (human, biotin (in vitro biotinylation, AviTag))
T1 construct: HER3 (ErbB3) extracellular domain 4, human, residues 500-643 of UniProt entry P21860; also called HER3d4; HER3 domain 4; source: Sf9 insect cells (baculovirus), secreted, purified (IMAC, Superdex 75), biotinylated in vitro; not shown: AviTag, N-terminal, kept
T1 chain: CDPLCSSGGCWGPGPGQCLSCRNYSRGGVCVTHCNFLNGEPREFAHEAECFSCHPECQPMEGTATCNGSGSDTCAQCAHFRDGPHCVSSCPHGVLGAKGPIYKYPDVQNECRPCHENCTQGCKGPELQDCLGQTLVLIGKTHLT
procedureDetails: SPR; ProteOn XPR36, NeutrAvidin NLC chip; biotinylated HER3d4 immobilised; monomeric DARPins injected at 2.5, 7.5, 22, 67 and 200 nM (duplicates), 60 µl/min, 5 min association, 5 min dissociation; PBS with 0.005% Tween-20; kinetic titration model
conditionSummary: both partners purified
Provide the recorded koff for the entries that follow.
The reply should read as a number followed by its unit.

What measured koff goes with DARPin D5 (His6- and FLAG-tagged form used for characterisation) (designed binder, N2C DARPin selected by ribosome display; source: E. coli XL1 Blue, purified (HisPur Cobalt Spin Plates)) GSDLGKKLLEAARAGQDDEVRILMANGADVNAFDHNGSTPLHLAAAIGHLEIVEVLLKYGADVNAEDNWGNTPLHQAAWVGHLEIVEVLLKNGADVNAQDKFGKTAFDISIDNGNEDLAEILQKLN ?
0.00856 s⁻¹

If you can, please state the reported koff value of DARPin D6 (designed binder, N3C DARPin selected by ribosome display; source: E. coli XL1 Blue, purified (HisPur Cobalt Spin Plates)) GSDLGKKLLEAARAGQDDEVRILMANGADVNAQDVSGQTPLHLAAIWGHLEIVEVLLKTGADVNAWDHWGNTPLHLAAWQGHLEIVEVLLKAGTDVNAKDSEGFTPLHLAAWWGHLEIVEVLLKHGADVNAQDKFGKTPFDLAIDNGNEDIAEVLQKAAKLN .
0.000623 s⁻¹

I have this binder here, DARPin D3 (designed binder, N2C DARPin selected by ribosome display; source: E. coli XL1 Blue, purified (HisPur Cobalt Spin Plates)) GSDLGKKLLEAARAGQDDEVRILMANGADVNAFDHSGSTPLHLAAAIGHLEIVEVLLKYGADVNAEDNWGNTPLHQAAWVGHREIVEVLLKYGADVNAQDKFGKTAFDISIDNGNEDLAEILQKLN , and I need its recorded koff.
0.0109 s⁻¹

Which koff reading was recorded for the binder DARPin D2 (designed binder, N2C DARPin selected by ribosome display; source: E. coli XL1 Blue, purified (HisPur Cobalt Spin Plates)) GSDLGKKLLEAARAGQDDEVRVLMANGADVNAFDHNGSTPLHLAAAIGHLEIVEVLLKYGADVNAEDNWGNTPLHQAAWVGHREIVEVLLKYGADVNAQDKFGKTAFDISIDNGNEDLAEILQKLN ?
0.00783 s⁻¹

Given DARPin D8 (designed binder, N3C DARPin selected by ribosome display; source: E. coli XL1 Blue, purified (HisPur Cobalt Spin Plates)) GSDLGKKLLEAARAGQDDEVRILMANGADVNAQDVSGQTPLHLAAIWGHLEIVEVLLKTGADVNAWDHWGNTPLHLAAWQGHLEIVEVLLKAGADVNAKDSEGFTPLHLAAWWGHLEIVEVLLKHGADVNAQDKFGKTPFDLAIDNGNEDIAEVLQKAAKLN , state its recorded koff.
0.000791 s⁻¹

GET /values?readout=koff&item= DARPin D4 (designed binder, N2C DARPin selected by ribosome display; source: E. coli XL1 Blue, purified (HisPur Cobalt Spin Plates)) GSDLGKKLLEAARAGQDDEVRILMANGADVNAFDHNGSTPLHLAAAIGHLEIVEVLLKYGADVNAEDNWGNTPLHQAAWVGHREIVEVLLKYGADVNAQDKFGKTAFDISIDNGNEDLAEILQKLN
0.00669 s⁻¹

Quick check: koff of DARPin D1 (designed binder, N2C DARPin selected by ribosome display; source: E. coli XL1 Blue, purified (HisPur Cobalt Spin Plates)) GSDLGKKLLEAARAGQDDEVRILMTNGADVNAFDHNGSTPLHLAAAIGHLEIVEVLLKYGADVNAEDNWGNTPLHQAAWVGHREIVEVLLKYGVDVNAQDKFGKTAFDISIDNGNEDLAEILQKLN ?
0.00932 s⁻¹

Quick one: koff for DARPin D7 (designed binder, N3C DARPin selected by ribosome display; source: E. coli XL1 Blue, purified (HisPur Cobalt Spin Plates)) GSDLGKKLLEATRAGQDDEVRILMANGADVNAQDVSGQTPLHLAAIWGHLEIVEVLLKTGADVNAQDWFGETPLHLAAVQGHLEIVEVLLKTGADVNAWDAYGHTPLHLAANYGHLEIVEVLLKHGADVNAQDKFGKTPFDLAIDNGNEDIAEVLQKAAKLN ?
0.00147 s⁻¹
